System: serum free fatty acid
assay_info: Hypolipidemic effect: serum free fatty acid
Format: in vivo, rat (Wister strain male)
condition_description: 100 mg/kg oral, 2 hours, fasted rats, vs control
Consider the following compounds; for each one, report its Serum Fatty Acid Decrease.
Give bare numbers, in %.

Take a look at these entries with their results.
INSERT INTO results (compound, number) VALUES
  ('CN1C(=O)NC(O)C1=O (stereo not shown) [compound 2, 5-hydroxy-3-methylhydantoin]', 45),
  ('CCCCN1C(=O)NC(=O)C1O (stereo not shown) [compound 4, 5-hydroxy-1-butylhydantoin]', 41),
  ('CN1C(=O)NC(=O)C1O (stereo not shown) [compound 1, 5-hydroxy-1-methylhydantoin]', 66);

With those in mind, consider the next compound.
Challenge: Returns the measured Serum Fatty Acid Decrease for the input compound. Input: CN1CC(=O)NC1=O
Response given: 43
